TARGET_OR_TEST_SYSTEM: 28 CDKs family protein kinases (Homo sapiens, UniProt P11802)
Construct: purchased ProQinase GmbH; host or cells: Sf9 insect cells or E. coli
Sequence (P11802 whole entry): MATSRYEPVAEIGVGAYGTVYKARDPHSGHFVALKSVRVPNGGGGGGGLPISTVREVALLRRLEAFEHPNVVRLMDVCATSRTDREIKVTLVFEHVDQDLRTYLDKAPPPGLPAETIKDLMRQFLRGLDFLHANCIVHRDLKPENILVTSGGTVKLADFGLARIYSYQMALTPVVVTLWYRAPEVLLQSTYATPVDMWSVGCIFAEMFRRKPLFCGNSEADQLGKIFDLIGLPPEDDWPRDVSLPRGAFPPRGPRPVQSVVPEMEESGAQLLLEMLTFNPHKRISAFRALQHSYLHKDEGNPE
Sequence (P30281 whole entry partner): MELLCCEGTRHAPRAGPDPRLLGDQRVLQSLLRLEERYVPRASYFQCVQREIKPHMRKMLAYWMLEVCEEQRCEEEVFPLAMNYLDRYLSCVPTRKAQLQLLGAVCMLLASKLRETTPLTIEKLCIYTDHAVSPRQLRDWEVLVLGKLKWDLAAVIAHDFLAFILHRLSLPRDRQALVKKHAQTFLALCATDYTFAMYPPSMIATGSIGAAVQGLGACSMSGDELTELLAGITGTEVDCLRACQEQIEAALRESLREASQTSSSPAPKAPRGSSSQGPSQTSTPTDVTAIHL
PROTOCOL_DETAILS: In vitro IC50 profile for CDKs family kinase (33PanQinase Activity Assay, ProQinase)
Format: biochemical
STATED_CONDITIONS: CDK4/CycD3; read-out: CDK7 selectivity profile in CDKs family, IC50
pIC50: −log10 of the molar value.
RECORDED_METRIC: pIC50

                                 smiles_str  recorded_metric  test_result
0  CC(C)c1cnn2c(NCc3ccccc3-c3nccc4cc(NC(=O)/C=C/CN(C)C)ccc34)nc(N3CCC(N)CC3)nc12            pIC50       < 5.00

* * *

Property: IC50; scope: individual compounds
TARGET_OR_TEST_SYSTEM: CDK5/p25 (Homo sapiens)
PROTOCOL_DETAILS: Enzymatic assay for CDK5 (LANCE Ultra kinase assay, FRET based)
STATED_CONDITIONS: ATP at Km
Procedure: Enzymatic Binding Assay Protocol for CDK1, CDK2, CDK5 and CDK7 Inhibition activity of the respective compound on CDK kinase under Km value of ATP was tested in FRET based The LANCE® Ultra kinase assay (Perkin Elmer), which uses a ULight™-labeled peptide substrate and an appropriate Europium-labeled anti-phospho-antibody. […] Data were analyzed using XL Fit software.
RECORDED_METRIC: IC50

>>> df
                                   compound    target_or_test_system     test_result
0  C=CC(=O)Nc1ccc2c(-c3ccccc3CNc3nc(Nc4cccnc4)nc4c(C(C)C)cnn34)nccc2c1 [Compound 188]  CDK5/p25 (Homo sapiens)       > 1000 nM
1  CC(C)c1cnn2c(NCc3cccc(-c4cc5cc(NC(=O)/C=C/CN(C)C)ccc5[nH]4)c3)nc(N3CCC(N)CC3)nc12 [Compound 23]  CDK5/p25 (Homo sapiens)  100 to 1000 nM
2  C=C(Br)C(=O)Nc1ccc2c(-c3ccccc3CNc3nc(NC[C@H]4CCNC[C@@H]4O)nc4c(C(C)C)cnn34)nccc2c1 [Compound 205]  CDK5/p25 (Homo sapiens)       > 1000 nM
3  C=CC(=O)Nc1cccc2ccc(-c3cccc(C)c3CNc3nc(N[C@H]4CC[C@H](OC)CC4)nc4c(C(C)C)cnn34)nc12 [Compound 112]  CDK5/p25 (Homo sapiens)       > 1000 nM
4  CC(C)c1cnn2c(NCc3ccccc3-c3nccc4cc(NC(=O)/C=C/CN(C)C)ccc34)nc(NC3CCS(=O)(=O)CC3)nc12 [Compound 107]  CDK5/p25 (Homo sapiens)       > 1000 nM
5  CC(C)c1cnn2c(NCc3cccc(NC4CCCN(C(=O)/C=C/CN(C)C)CC4)c3)nc(N3CCC(N)CC3)nc12 (racemic) [Compound 21]  CDK5/p25 (Homo sapiens)  100 to 1000 nM
6  C=CC(=O)Nc1ccc2c(-c3ccccc3CNc3cc(Cl)nc4c(C(C)C)cnn34)nccc2c1 [Compound 193]  CDK5/p25 (Homo sapiens)       > 1000 nM

* * *

TARGET_OR_TEST_SYSTEM: CDK5/p25 (Homo sapiens, UniProt Q00535)
Sequence (Q00535 whole entry): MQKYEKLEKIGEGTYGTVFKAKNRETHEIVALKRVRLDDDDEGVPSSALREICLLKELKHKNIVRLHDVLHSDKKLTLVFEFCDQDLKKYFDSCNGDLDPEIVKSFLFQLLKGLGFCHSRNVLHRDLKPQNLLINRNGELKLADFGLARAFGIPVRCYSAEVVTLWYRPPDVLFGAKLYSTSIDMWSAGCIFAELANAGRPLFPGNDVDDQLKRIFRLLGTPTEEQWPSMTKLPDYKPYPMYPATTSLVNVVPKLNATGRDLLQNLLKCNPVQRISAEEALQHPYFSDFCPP
Sequence (Q15078 99-307 partner limits assumed): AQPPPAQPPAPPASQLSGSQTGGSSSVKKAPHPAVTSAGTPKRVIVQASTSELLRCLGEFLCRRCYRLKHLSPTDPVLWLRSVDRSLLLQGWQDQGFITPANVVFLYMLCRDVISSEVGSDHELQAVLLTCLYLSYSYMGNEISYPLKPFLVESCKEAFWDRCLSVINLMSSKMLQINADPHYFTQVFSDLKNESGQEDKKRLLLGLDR
PROTOCOL_DETAILS: Enzymatic assay for CDK5 (LANCE Ultra kinase assay, FRET based)
STATED_CONDITIONS: ATP at Km
RECORDED_METRIC: IC50

>>> print(df.to_string())
                                   compound  test_result
0  CC(C)c1cnn2c(NCc3ccccc3-c3nccc4cc(NC(=O)/C=C/CN(C)C)ccc34)nc(NCC3CNCCO3)nc12 (racemic)    > 1000 nM
1  CC(C)c1cnn2c(NCc3ccccc3-c3nccc4cc(NC(=O)/C=C/CN(C)C)ccc34)nc(S(C)(=O)=O)nc12    > 1000 nM
2  C=C(F)C(=O)Nc1ccc2c(-c3ccccc3CNc3nc(N[C@@H]4CCC(C)(C)NC4)nc4c(C(C)C)cnn34)nccc2c1    > 1000 nM

* * *

TARGET_OR_TEST_SYSTEM: 28 CDKs family protein kinases (Homo sapiens)
Construct: purchased ProQinase GmbH; host or cells: Sf9 insect cells or E. coli
PROTOCOL_DETAILS: In vitro IC50 profile for CDKs family kinase (33PanQinase Activity Assay, ProQinase)
Type: biochemical
STATED_CONDITIONS: CDK1/CycB1; read-out: CDK7 selectivity profile in CDKs family, IC50
pIC50: −log10 of the molar value.
RECORDED_METRIC: pIC50

In [3]: df
Out[3]:
                                 smiles_str  test_result
0  CC(C)c1cnn2c(NCc3ccccc3-c3nccc4cc(NC(=O)/C=C/CN(C)C)ccc34)nc(N3CCC(N)CC3)nc12       < 5.00

* * *

TARGET_OR_TEST_SYSTEM: 28 CDKs family protein kinases (Homo sapiens, UniProt P06493)
Construct: purchased ProQinase GmbH; host or cells: Sf9 insect cells or E. coli
PROTOCOL_DETAILS: In vitro IC50 profile for CDKs family kinase (33PanQinase Activity Assay, ProQinase)
Format: biochemical
STATED_CONDITIONS: CDK1/CycE1; read-out: CDK7 selectivity profile in CDKs family, IC50
pIC50: −log10 of the molar value.
RECORDED_METRIC: pIC50

>>> print(df.to_string())
                                 smiles_str  recorded_metric  test_result
0  CC(C)c1cnn2c(NCc3ccccc3-c3nccc4cc(NC(=O)/C=C/CN(C)C)ccc34)nc(N3CCC(N)CC3)nc12            pIC50       < 5.00

* * *

TARGET_OR_TEST_SYSTEM: CDK5/p25 (Homo sapiens, UniProt Q00535)
Construct: purchased Invitrogen PR8543B
PROTOCOL_DETAILS: Enzymatic assay for CDK5 (LANCE Ultra kinase assay, FRET based)
Type: biochemical
STATED_CONDITIONS: ATP at Km
Property: IC50; scope: individual molecules
RECORDED_METRIC: IC50

                                 smiles_str                    target_or_test_system  recorded_metric  test_result
0  C=CC(=O)Nc1ccc2c(-c3ccccc3CNc3nc(-c4cccnc4)nc4c(C(C)C)cnn34)nccc2c1  CDK5/p25 (Homo sapiens, UniProt Q00535)             IC50       > 1 µM
1  C=C(F)C(=O)Nc1ccc2c(-c3ccccc3CNc3nc(NC[C@H]4CCN(CC)C[C@@H]4O)nc4c(C(C)C)cnn34)nccc2c1  CDK5/p25 (Homo sapiens, UniProt Q00535)             IC50       > 1 µM
2  C=C(F)C(=O)Nc1ccc2c(-c3ccccc3CNc3nc(N[C@H]4CC[C@H](NC)CC4)nc4c(C(C)C)cnn34)nccc2c1  CDK5/p25 (Homo sapiens, UniProt Q00535)             IC50       > 1 µM

* * *

TARGET_OR_TEST_SYSTEM: 28 CDKs family protein kinases (Homo sapiens)
PROTOCOL_DETAILS: In vitro IC50 profile for CDKs family kinase (33PanQinase Activity Assay, ProQinase)
Assay type: biochemical
Design: fused on or other part: GST or His tag
STATED_CONDITIONS: CDK5/p25NCK; read-out: CDK7 selectivity profile in CDKs family, IC50
pIC50: −log10 of the molar value.
RECORDED_METRIC: pIC50

>>> print(df.to_string())
                                 smiles_str  test_result
0  CC(C)c1cnn2c(NCc3ccccc3-c3nccc4cc(NC(=O)/C=C/CN(C)C)ccc34)nc(N3CCC(N)CC3)nc12       < 5.00

* * *

TARGET_OR_TEST_SYSTEM: CDK5/p25 (Homo sapiens, UniProt Q00535)
PROTOCOL_DETAILS: Enzymatic assay for CDK5 (LANCE Ultra kinase assay, FRET based)
STATED_CONDITIONS: ATP at Km
pIC50: −log10 of the molar value.
Property: pIC50; scope: individual molecules
RECORDED_METRIC: pIC50

>>> df
                                 smiles_str  test_result
0  CC(C)c1cnn2c(NCc3ccccc3-c3nccc4cc(NC(=O)/C=C/CN(C)C)ccc34)cc(NC3CCC(F)(F)CC3)nc12       < 6.00
1  C/C=C/C(=O)Nc1ccc2c(-c3ccccc3CNc3nc(N4CCC(N)CC4)nc4c(C(C)C)cnn34)nccc2c1       < 6.00
2  C=C(F)C(=O)Nc1ccc2c(-c3ccccc3CNc3nc(N4CCC(OC(F)(F)F)CC4)nc4c(C(C)C)cnn34)nccc2c1       < 6.00
